- Tested on: OXPHOS gene expression
- Assay type: cell-based, mouse
- conditionContext: composite Z-score vs DMSO; Conc 20 μM
Label met when GE-HTS is strictly below -0.7; at or above that, label not met.

C[N+]1(CCCCC[N+]2(C)CCCC2)CCCC1; met
Cn1c(=O)[nH]c(=O)c2[nH]cnc21; met
C[C@@H]1[C@H](O)[C@@H](C)/C=C/C=C/CC/C=C/C=C/C=C/C=C/C(O[C@H]2O[C@H](C)[C@@H](O)[C@H](N)[C@@H]2O)CC2O[C@](O)(CC(O)C(O)CCC(O)CC(O)CC(O)CC(=O)O[C@H]1C)CC(O)C2C(=O)O (some centres unmarked); not met
CCN1C[C@]2(COC)[C@H](O)C[C@H](OC)[C@@]34[C@@H]5C[C@@]6(O)[C@H](OC(=O)c7ccccc7)[C@@H]5[C@@](OC(C)=O)([C@@H]([C@H](OC)[C@H]23)[C@@H]14)[C@@H](O)[C@@H]6OC; not met
C[C@H](N)CO; not met

Confirm or reject: GE-HTS of C=C1C(=O)O[C@@H]2C[C@@]3(C)CCC[C@H](C)C3=C[C@H]12 lies strictly below -0.7
met

Confirm or reject: GE-HTS of Oc1cc(O)c2c(c1)O[C@H](c1ccc(O)c(O)c1)[C@H](O)C2 [epicatechin, reference compound] lies strictly below -0.7
not met

Confirm or reject: GE-HTS of N=C(N)N/N=C/c1c(Cl)cccc1Cl lies strictly below -0.7
not met

====

# maps each entry to its MTT
- Test system: cellular dehydrogenase activity
- conditionContext: 20 μM; composite Z-score vs DMSO

Can you share its MTT? I mean this compound: CC1COc2c(N3CCN(C)CC3)c(F)cc3c(=O)c(C(=O)O)cn1c23 (stereo not shown) [ofloxacin]
−1.248

Can you share its MTT? I mean this compound: CN(C)C(=S)SSC(=S)N(C)C [thiram]
−6.222

Can you share its MTT? I mean this compound: COc1ccc([C@@H]2CC(=O)c3c(O)cc(O[C@@H]4O[C@H](CO[C@@H]5O[C@@H](C)[C@H](O)[C@@H](O)[C@H]5O)[C@@H](O)[C@H](O)[C@H]4O)cc3O2)cc1O [hesperidin]
−0.992

Can you share its MTT? I mean this compound: CC1(C)[C@H]2CC[C@@]1(C)C(=O)C2 [1r-camphor]
−0.402

====

What follows is a record of MTT (composite Z-score) for cellular dehydrogenase activity.
Field format: numeric only.

Example entries begin here.
Cc1c(O)cc(O)c2c(=O)c(-c3ccc(O)cc3)coc12 [genistein, 8-methyl]; −1.035
COc1ccc(-c2coc3c(OC)c(OC)ccc3c2=O)cc1 [retusin dimethyl ether]; −1.263
COc1ccccc1/C=C/C(=O)O [coumarinic acid methyl ether]; −2.099

Can you share its MTT (composite Z-score)? I mean this molecule: CC(=O)C(=Cc1ccccc1)CC(=O)O [3-benzylidenyl-levulinic acid]
−0.665

Can you share its MTT (composite Z-score)? I mean this molecule: CN[C@@H](Cc1c[nH]c2ccccc12)C(=O)O [abrine]
−1.203

====

What follows is a record of MTT for cellular dehydrogenase activity.

CC(C)NC[C@@H](O)COc1ccc(CC(N)=O)cc1 [(R)-(+)-atenolol]; −1.053
COP(=S)(OC)Oc1ccc([N+](=O)[O-])cc1; −0.341
Cc1c(N(C)C)c(=O)n(-c2ccccc2)n1C; −0.051
OC(CCN1CCCCC1)(c1ccccc1)C1CC2C=CC1C2 (stereo not shown); −0.886
CC(N/C(=N\C#N)Nc1ccncc1)C(C)(C)C (stereo not shown); −0.889
CC; −1.330

Can you share its MTT? I mean this compound: CO/N=C(\C(=O)N[C@@H]1C(=O)N2C(C(=O)O)=C(CSc3nc(=O)c(=O)[nH]n3C)CS[C@H]12)c1csc(N)n1
−1.040

Can you share its MTT? I mean this compound: CN[C@H]1CC[C@@H](c2ccc(Cl)c(Cl)c2)c2ccccc21
−1.905

Can you share its MTT? I mean this compound: C=C(C)CCCC(C)CCOC(C)=O (stereo not shown) [rhodinyl acetate]
−0.833

Can you share its MTT? I mean this compound: CN(C)c1nc(N(C)C)nc(N(C)C)n1
−0.442

Data origin: patent US20090143279A1
